Target: T1, human LAP-TGFB1 Fc fusion (human)
T1 construct: also called human LAP-TGFβ1-Fc; human LAP-TGFβ-Fc isoform 1
T1 sequence (chain, as listed by the source limits assumed): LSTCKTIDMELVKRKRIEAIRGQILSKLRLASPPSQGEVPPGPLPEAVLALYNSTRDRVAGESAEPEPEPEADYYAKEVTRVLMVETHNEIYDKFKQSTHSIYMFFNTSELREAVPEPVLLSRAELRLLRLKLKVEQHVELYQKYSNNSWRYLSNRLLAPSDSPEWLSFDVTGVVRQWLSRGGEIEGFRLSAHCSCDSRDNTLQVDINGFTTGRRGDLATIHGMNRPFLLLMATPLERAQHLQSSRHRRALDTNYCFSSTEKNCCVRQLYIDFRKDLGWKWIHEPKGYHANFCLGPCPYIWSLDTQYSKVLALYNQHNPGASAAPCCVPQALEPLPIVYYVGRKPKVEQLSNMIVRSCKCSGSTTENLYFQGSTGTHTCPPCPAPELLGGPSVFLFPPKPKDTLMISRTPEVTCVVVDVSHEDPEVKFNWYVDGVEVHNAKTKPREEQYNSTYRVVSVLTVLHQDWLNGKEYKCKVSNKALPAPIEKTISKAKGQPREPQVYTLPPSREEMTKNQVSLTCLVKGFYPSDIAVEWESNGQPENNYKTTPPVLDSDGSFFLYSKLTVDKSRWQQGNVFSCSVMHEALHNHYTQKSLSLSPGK
Assay: SPR pH 7.4, antigen-Fc captured, Fab analyte
parameter: Fold improvement in KD

>  <binder>
64BLH (Fab, V domains shown, also called 16BLM Fab) VH: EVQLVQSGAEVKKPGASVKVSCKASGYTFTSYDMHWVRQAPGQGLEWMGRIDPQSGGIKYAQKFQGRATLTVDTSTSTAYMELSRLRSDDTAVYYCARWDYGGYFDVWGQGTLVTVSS VL: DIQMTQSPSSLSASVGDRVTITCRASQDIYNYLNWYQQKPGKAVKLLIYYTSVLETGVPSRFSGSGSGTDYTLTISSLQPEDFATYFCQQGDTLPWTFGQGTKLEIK

>  <parameter>
Fold improvement in KD

>  <result>
760 fold

$$$$
>  <binder>
61BLH (Fab, V domains shown, also called 13BLM Fab) VH: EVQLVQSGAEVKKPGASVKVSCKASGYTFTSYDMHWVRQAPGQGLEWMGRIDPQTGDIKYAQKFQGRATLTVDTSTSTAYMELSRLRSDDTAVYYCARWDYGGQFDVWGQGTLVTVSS VL: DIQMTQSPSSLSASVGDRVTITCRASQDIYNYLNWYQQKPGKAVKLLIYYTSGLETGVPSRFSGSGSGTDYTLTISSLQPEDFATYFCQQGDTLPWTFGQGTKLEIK

>  <parameter>
Fold improvement in KD

>  <result>
4500 fold

$$$$
>  <binder>
62BLH (Fab, V domains shown, also called 14BLM Fab) VH: EVQLVQSGAEVKKPGASVKVSCKASGYTFTSYDTHWVRQAPGQGLEWMGRIDPQSGGIKYAQKFQGRATLTVDTSTSTAYMELSRLRSDDTAVYYCARWDYGGYFDVWGQGTLVTVSS VL: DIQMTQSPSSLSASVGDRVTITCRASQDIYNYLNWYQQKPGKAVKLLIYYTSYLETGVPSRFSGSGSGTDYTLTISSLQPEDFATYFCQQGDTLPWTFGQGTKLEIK

>  <parameter>
Fold improvement in KD

>  <result>
222 fold

$$$$
